I'd appreciate it if you could supply apparent KD of K4 kissing-loop reporter values for the items below.
system: K4 kissing-loop RNA reporter; test: apparent KD of K4 kissing-loop reporter; higher = weaker reporter binding; details: Eterna round: R107; input ligand: tryptophan 2.4 mM
The figure you give is taken to be in nM; do not add the unit.

Task: Assign apparent KD of K4 kissing-loop reporter to the following record: CUUCAGAUCUGAAGGAGCGCGUUACCAGAAUGCAUCAUAGAGCAGUGAUGUUGCUCUGGAUCGCAGGUAGGUCGCAGAUCUGACG [Arg B Ex t7b]
Result: 195

Task: Assign apparent KD of K4 kissing-loop reporter to the following record: GGUCGCCUGAGCAGUGAUGUUGCAAGGGAAGGAGCGCGUUUUUUCGCAGGUAGGUCGCCCAAAUAAUAAGUUAAACUAGGCGACC [4.)]
Result: 205

Task: Assign apparent KD of K4 kissing-loop reporter to the following record: AAGUGAUGUUGUAGUGAUGUUGUGAUGUUGCAGGAUAUAUAGUGAUGUAGAAGGGUAAGUACUGAUUUUUUUUGUGAGUGAUGUU [bbgvzrmullin]
Result: 71.4

====

system: MS2 coat protein; assay: apparent KD of MS2 coat protein; designed switch direction (-1 OFF switch, 1 ON switch): -1; higher = weaker reporter binding; details: Eterna round: R95; input ligand: microRNA oligo, concentration not stated
Each record's apparent KD of MS2 coat protein is compared with Low (below 30 nM), Medium (30 nM to below 100 nM), High (100 nM or more) to give its class.

Task: Textbook exercise: identify the category of the sequence given here, CCGGAAGUACAGGAUAUCGUAUCGGAAACGAUACGAGAAGGGUAUACAUGAGGAUCACCCAUGUGUCCUACCGG [Fiskers Ex 6 - 27] (puzzle: Exclusion 6) , according to its measured value.
Result: Low

Task: Textbook exercise: identify the category of the sequence given here, AAUUAACAAGCAAGAUCCUACAUGAGGAUCACCCAUGUGCUCGUCUUAUAAAGUACUAUCACGAAAGUGAUAGUACA [Mat - Sensor v3 - turn-off var 1 - Eli Mod - D57] (puzzle: Sensor v3, turn-off variant 1) , according to its measured value.
Result: High

Task: Textbook exercise: identify the category of the sequence given here, ACAAGCUUUUUGCUCGAAGAGUAGAAACGUGAGAGCGAAACAUGAGGAUCACCCAUGUAAAGGCAGUAGGUGAAGAU [JR_SV3TOV2_Sub024] (puzzle: Sensor v3, turn-off variant 2) , according to its measured value.
Result: Medium

Task: Textbook exercise: identify the category of the sequence given here, AAUAAUACAGGAUAUACAGUUUAUUACAUGAGGAUCACCCAUGUUCUUCAAUGUAUAUAAGUAGAAGGGUAAGGAA [EX-5 Malc#1] (puzzle: Exclusion 5) , according to its measured value.
Result: Low

Task: Textbook exercise: identify the category of the sequence given here, GGAAAACAUGAGGAUCACCCAUGUAAGGAUAUGCAAAAGGAUAUAGAAGGAAAAUAAAGCAGAAGGUACAAAGG [salish99-ex1_r3_098] (puzzle: Exclusion 1) , according to its measured value.
Result: Low

Task: Textbook exercise: identify the category of the sequence given here, GUUAGUUAAGGAUAUACUGGGAGCUGCGGCGUCUCGCCGCAACAUGAGGAUCACCCAUGUAGAAGGUGACCAUU [JL ViennaUCT Enbibi mod 5] (puzzle: Exclusion 2) , according to its measured value.
Result: High

Task: Textbook exercise: identify the category of the sequence given here, AUCAUGUAAGGAUAUCUUACAUGGAUCGAAAGAUCAAGUUAAGAGAAGGUACAUGAGGAUCACCCAUGUAUAAC [Ex4-3: 34] (puzzle: Exclusion 4) , according to its measured value.
Result: Low

Task: Textbook exercise: identify the category of the sequence given here, AAGAAACAUGAGGAUCACCCAUGUGAGGAUAUGAUUAAGAAAAGAAAAGAAAGAAGACUCAGAAGGCACAAAGG [salish99-ex1_r3_069] (puzzle: Exclusion 1) , according to its measured value.
Result: Medium

Task: Textbook exercise: identify the category of the sequence given here, UAAUACAAGUAAAGAUCCUACAUGAGGAUCACCCAUGUGCUCGUCUUGUAAAGUACUAUCACGAAAGUGAUAGUACA [Mat - Sensor v3 - turn-off var 1 - Eli Mod - D85] (puzzle: Sensor v3, turn-off variant 1) , according to its measured value.
Result: High

====

I'd appreciate it if you could supply apparent KD of K4 kissing-loop reporter values for the items below.
tested on: K4 kissing-loop RNA reporter; assay: apparent KD of K4 kissing-loop reporter; higher = weaker reporter binding; settings: Eterna round: R107; input ligand: tryptophan 2.4 mM;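 further: bound reporter read as fluorescence of individual clusters on recovered sequencing chips by microscopy, with normalized cluster intensities fitted with a binding model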
The figure you give is taken to be in µM; do not add the unit.

Task: Assign apparent KD of K4 kissing-loop reporter to the following record: CCAUCGCUAUUCGAUACCAGCUCCUUAGUGAUGUUAAGGUUUUACCCACUGUAGGUGGGAAGCCCUUGGCAGCGAAUAGUGAUGG [Theophylline B K4 28]
Result: 1.03

Task: Assign apparent KD of K4 kissing-loop reporter to the following record: UGGAGUUGACGAAAAGUCAACUCCUGAGAUACCAGUGACGAAAGUCACCCUUGGCAGCUCACUGCCAGUGAUGUUGGAAGAUAAA [whbob_SS_Theo_A_w46]
Result: 0.585

Task: Assign apparent KD of K4 kissing-loop reporter to the following record: GCCGUACGCACGGAUACCAGCACUCGGUGAGUGAUGUUCACGGUGUGGUAUUCAUCGGGCUGCCCUUGGCAGCCGUGCGUACGGC
Result: 0.107

Task: Assign apparent KD of K4 kissing-loop reporter to the following record: GGUAGCAUGGCGGCCGCCACUAAGAGAGUGAUGUUCUCUUAGUUUUUUGAUGUGUUAUCAAUUCUUAGGACCGGGCCAUGCUACC
Result: 0.109

Task: Assign apparent KD of K4 kissing-loop reporter to the following record: ACGAAGGAUGGAAGGAGCGCUCGUCAGUCCUGCGAGUGAUGUUCGUGGGUAAAUAUUCGCGAGCAGGUAGGUCGCCAUCUUGAGC [Soregeor]
Result: 0.129

Task: Assign apparent KD of K4 kissing-loop reporter to the following record: CCAGUGAUAAACGAUACCAGAAAUACCUUAUUUGGCCGGCGGAGUGAUGUUCCUAAUACUUUCCCUUGGCAGCGUCGAAUGCUAG [theeternabot_sameState_KL_Theo_B_16]
Result: 0.0423

Task: Assign apparent KD of K4 kissing-loop reporter to the following record: UGCAUCGUUGGCAGGCGCACCACACAGUGUAAGGAUAUGAUGUCGUUCAGAAGGUACGCUUGACCGAGUGAUGUUCGGGAGUGCC [theeternabot_sameState_KL_FMN_A_9]
Result: 0.196

Task: Assign apparent KD of K4 kissing-loop reporter to the following record: AAUUCCUGUUAUGAUACCAGAAAUCACAGCAACCUGCCUACCUAGUGAUGUUAGGAGAAUUUCCCUUGGCAGCAUCGACUGAAGG [theeternabot_sameState_KL_Theo_B_38]
Result: 0.124

====

I'd appreciate it if you could supply apparent KD of MS2 coat protein values for the items below.
tested on: MS2 coat protein; test: apparent KD of MS2 coat protein; designed switch direction (-1 OFF switch, 1 ON switch): -1; higher = weaker reporter binding; settings: Eterna round: R95; input ligand: FMN 200 uM
The figure you give is taken to be in nM; do not add the unit.

Task: Assign apparent KD of MS2 coat protein to the following record: CGCUAGUCAGGAUAUACGAACAUGUCAAAAGACGUGAAGGGACAUGAGGAUCACCCAUGUAGAAGGGACUAGCA [salish99_ex2_r3_014] (puzzle: Exclusion 2)
Result: 147

Task: Assign apparent KD of MS2 coat protein to the following record: CUAGUCCGAGGAUAUAUUAAGUGAUACAUGAGGAUCACCCAUGUUAUUUAAUGGAUGUUAAUAGAAGGCGGACUAG [Mat - Exclusion 5 - JL mod - D76] (puzzle: Exclusion 5)
Result: 55

Task: Assign apparent KD of MS2 coat protein to the following record: ACGUGAUAUCUGUCGUUGGACAUGAGGAUCACCCAUGUGAGCUUUUUGCUCGUCUUAUAACCCGGUGACAGACCUUC [Aatbebeed] (puzzle: Sensor v3, turn-off variant 1)
Result: 18.4

Task: Assign apparent KD of MS2 coat protein to the following record: GUAGCUUCGGCUACUACAAGCUUUUUGCUCGUCUUAUUAACAUGAGGAUCACCCAUGUACAAGAGACCUCAUGUAUU [Sensor v3 - turn-off variant 2 - 13] (puzzle: Sensor v3, turn-off variant 2)
Result: 90.4

Task: Assign apparent KD of MS2 coat protein to the following record: AAAAAACAAGGAUAUACUAAGGAUGAUUAUCUUAAUUUUUGACAUGAGGAUCACCCAUGUAGAAGGUGUUAAAA [JR_Exclusion2_Sub007] (puzzle: Exclusion 2)
Result: 98.9

# credit: the supplement of paper PMC9170038
